Reference for the values: the supplement of paper PMC9732359

Quick list: protein stability index per entry.
assay: protein stability index of a GFP-peptide fusion (yeast GPS) (PSI 1-4); higher = more stable; sorted into four equal gates, so the index is relative within each strain; settings: pdr5∆
Please give the numeric answer without any surrounding text.

Some solved entries appear below for comparison.
NHSLQHQNESSAASIPP [RPN4] ... 3
TGETYQRFVGHKSDVMS [ASC1] ... 3.09
SGWGAVVYIIKKDEVVK [PUP3] ... 2.96

Just so you know, measured protein stability index for EFTPADPNLSFESSSSL [SSN2] came out at 3.09

Just so you know, measured protein stability index for AEDDVIIPQDILDCVVT [YJR042W/NUP85] came out at 3.04
